experiment: amyloid nucleation score (Sup35N fusion, yeast selection) (log enrichment); library NNK2; higher = more nucleation; inactive = no reads after selection;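 further: zero at mode of non-aggregating sequences after 7 days selection at 30°C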
Each entry below carries its recorded amyloid nucleation score.

Here is how some substances turned out for amyloid nucleation score.
| substance | experimental result |
| --- | --- |
| LCDIIQAF | -0.626 |
| FVWSFHCCMARWYGLGCSYM | 1.1 |
| FSRADTVF | 2.79 |
| FGLSITECGWVVLCMVWVPR | 0.246 |
| IVNLARLKCSMCRECCGRVL | 2.64 |

Memo: IFVALEIGVVNVDQVAKDVC , reported amyloid nucleation score: 6.75

Memo: FGDSDRMRAGRLWFMWSLVA , reported amyloid nucleation score: 0.639

Memo: SSQCYYGPLFWSYEFRSYCV , reported amyloid nucleation score: -0.162

Memo: MYGTTRLVLWAVIDWFEGVG , reported amyloid nucleation score: -0.718

Memo: FSAEIRGTQRMLQRLSLYKR , reported amyloid nucleation score: 1.61

Memo: PRVGRRGSLRKCPWLLWYVL , reported amyloid nucleation score: 0.052

Memo: LIVCWGMWFLQW , reported amyloid nucleation score: -1.74
